Form: system (UniProtKB P29274), quantity (pIC50), values below.
Sequence (P29274 whole entry): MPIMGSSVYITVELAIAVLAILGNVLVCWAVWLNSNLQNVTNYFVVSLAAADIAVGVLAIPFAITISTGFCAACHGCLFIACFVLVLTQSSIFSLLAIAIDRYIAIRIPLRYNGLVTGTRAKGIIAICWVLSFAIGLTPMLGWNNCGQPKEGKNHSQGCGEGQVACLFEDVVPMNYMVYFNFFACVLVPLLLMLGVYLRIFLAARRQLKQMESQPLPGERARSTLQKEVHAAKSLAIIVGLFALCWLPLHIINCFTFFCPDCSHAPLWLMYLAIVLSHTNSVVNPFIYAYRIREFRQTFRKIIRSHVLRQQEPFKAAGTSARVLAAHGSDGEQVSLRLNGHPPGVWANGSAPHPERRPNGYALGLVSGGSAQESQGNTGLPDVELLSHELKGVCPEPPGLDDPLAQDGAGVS
pIC50: −log10 of the molar value.
Readout name: pIC50

> print(dat)
                                   compound  target.under.test  readout.name  readout.number
1  COc1cc2nc(N)n3nc(C4CCC(C)N(c5cnn(C6CCCC6O)c5)C4)nc3c2cc1F (single isomer, unassigned)   UniProtKB P29274         pIC50           10.00
2  COc1cccc2c1nc(N)n1nc([C@@H]3CCC[C@](O)(c4cnn(CC(C)(C)O)c4)C3)nc21 (single isomer, unassigned)   UniProtKB P29274         pIC50            8.85
3  COc1cc2nc(N)n3nc([C@@H]4C[C@@H](C)CN(c5cnn(CC(C)(C)O)c5)C4)nc3c2cc1F (single isomer, unassigned)   UniProtKB P29274         pIC50            7.96

Measured values drawn from patent US11312719B2 for this set.
